Values compiled from patent US20140243334A1.

- STUDY_SYSTEM: purified human HDAC6 (Homo sapiens, UniProt Q9UBN7)
- Construct: purchased BPS Bioscience 5006
- Sequence (Q9UBN7 whole entry): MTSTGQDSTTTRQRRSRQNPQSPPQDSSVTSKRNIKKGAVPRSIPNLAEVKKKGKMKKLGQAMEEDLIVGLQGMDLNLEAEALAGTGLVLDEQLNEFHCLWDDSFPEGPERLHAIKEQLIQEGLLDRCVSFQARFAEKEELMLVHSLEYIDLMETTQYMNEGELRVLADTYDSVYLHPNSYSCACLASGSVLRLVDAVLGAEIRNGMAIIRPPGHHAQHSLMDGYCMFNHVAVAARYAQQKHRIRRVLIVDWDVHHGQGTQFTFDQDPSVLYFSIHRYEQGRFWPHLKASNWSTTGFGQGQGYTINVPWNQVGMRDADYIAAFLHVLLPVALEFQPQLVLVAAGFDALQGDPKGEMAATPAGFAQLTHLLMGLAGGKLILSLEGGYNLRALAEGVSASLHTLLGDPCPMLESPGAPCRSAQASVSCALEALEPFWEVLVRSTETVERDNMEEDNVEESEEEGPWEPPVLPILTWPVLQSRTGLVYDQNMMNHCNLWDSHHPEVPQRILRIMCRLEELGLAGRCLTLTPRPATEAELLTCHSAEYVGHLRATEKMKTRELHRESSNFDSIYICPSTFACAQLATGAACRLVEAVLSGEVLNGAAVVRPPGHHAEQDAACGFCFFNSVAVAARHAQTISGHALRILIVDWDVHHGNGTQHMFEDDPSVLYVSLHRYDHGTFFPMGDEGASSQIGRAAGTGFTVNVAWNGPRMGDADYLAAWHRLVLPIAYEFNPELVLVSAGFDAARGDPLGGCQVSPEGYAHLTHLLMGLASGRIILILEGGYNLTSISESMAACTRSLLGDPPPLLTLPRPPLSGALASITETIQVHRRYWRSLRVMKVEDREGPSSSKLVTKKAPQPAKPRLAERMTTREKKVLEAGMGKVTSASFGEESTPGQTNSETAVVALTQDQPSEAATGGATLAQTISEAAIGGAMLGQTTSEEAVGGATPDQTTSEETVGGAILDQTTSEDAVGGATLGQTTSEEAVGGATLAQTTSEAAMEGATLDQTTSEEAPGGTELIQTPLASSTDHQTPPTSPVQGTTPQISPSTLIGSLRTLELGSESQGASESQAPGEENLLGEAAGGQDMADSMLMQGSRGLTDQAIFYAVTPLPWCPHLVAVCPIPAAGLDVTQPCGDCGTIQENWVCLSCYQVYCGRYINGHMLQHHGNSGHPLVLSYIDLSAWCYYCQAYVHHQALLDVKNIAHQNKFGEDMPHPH
- EXPERIMENT_DESCRIPTION: HDAC6 Enzyme Assay
- Type: biochemical
- TEST_CONTEXT: HDAC6 inhibition at a compound concentration of 0.412 μM; read-out: Percent Inhibition at 0.412 μM
MEASURE_NAME: inhibition at 0.412 µM (%)

See these solved cases before continuing.
CN(C)S(=O)(=O)c1cccc(-c2ccc3c(c2)CC(C(=O)NO)CC3)c1 (stereo not drawn) = 79
COc1ccc(C(=O)Nc2ccc3c(c2)CC(C(=O)NO)CC3)cc1 (stereo not drawn) = 81
O=C(NO)C1CCc2ccc(-c3ccc4cc[nH]c4c3)cc2C1 (stereo not drawn) = 87
O=C(NO)C1CCc2ccc(NCc3cccnc3)cc2C1 (stereo not drawn) = 57

1 = O=C(NO)C1CCc2cc(Oc3ccncc3)ccc2C1 (stereo not drawn)
2 = O=C(NO)C1CCc2cc(Nc3ccccc3Cl)ccc2C1 (stereo not drawn)
Param metric = inhibition at 0.412 µM; output whichever of 1 , 2 has the minimum value. Lab log: write the label of the selected item as the result.
2
